Data origin, for the record: patent US20110052674A1

Test: Solubility test in PEG 400/H2O 7/3
Type: physicochemical
Conditions: PEG 400/H2O 7/3, aqueous with cosolvent or surfactant or cyclodextrin, thermodynamic from solid; PEG400/H2O 70:30, 5.0 mg in 1 ml, mixed 1 hour, filtered; read-out: Solubility PEG400/H2O 70:30 (mg/ml) target 5 mg/ml
READOUT LABEL: solubility at 1 h (mg/mL)

[[record]]
molecule = "CCCCc1nc(Cl)c(COC(=O)NCCOC(=O)CCCO[N+](=O)[O-])n1Cc1ccc(-c2ccccc2-c2nnn[nH]2)cc1"
relation_sign = "="
measurement = 4

[[record]]
molecule = "CCCCc1nc(Cl)c(C(=O)N[C@@H](Cc2ccccc2)C(=O)OCCCCO[N+](=O)[O-])n1Cc1ccc(-c2ccccc2-c2nnn[nH]2)cc1"
relation_sign = ">"
measurement = 5

[[record]]
molecule = "CCCCc1nc(Cl)c(C(=O)NCC(=O)OCCCCO[N+](=O)[O-])n1Cc1ccc(-c2ccccc2-c2nnn[nH]2)cc1"
relation_sign = "="
measurement = 4.2

[[record]]
molecule = "CCCCc1nc(Cl)c(COC(=O)NCC(=O)OCCCCO[N+](=O)[O-])n1Cc1ccc(-c2ccccc2-c2nnn[nH]2)cc1"
relation_sign = ">"
measurement = 5

[[record]]
molecule = "CCCCc1nc(Cl)c(C(=O)N[C@@H](Cc2ccccc2)C(=O)OCCCCC(CO[N+](=O)[O-])O[N+](=O)[O-])n1Cc1ccc(-c2ccccc2-c2nnn[nH]2)cc1 (stereo in doubt)"
relation_sign = "="
measurement = 4.9

[[record]]
molecule = "CCCCc1nc(Cl)c(C(=O)NCC(=O)OCc2ccc(CO[N+](=O)[O-])cc2)n1Cc1ccc(-c2ccccc2-c2nnn[nH]2)cc1"
relation_sign = "="
measurement = 5.07

[[record]]
molecule = "CCCCc1nc(Cl)c(C(=O)NCC(=O)NCCCCO[N+](=O)[O-])n1Cc1ccc(-c2ccccc2-c2nnn[nH]2)cc1"
relation_sign = "="
measurement = 4.6

[[record]]
molecule = "CCCCc1nc(Cl)c(COC(=O)N[C@H](COC(=O)CCCO[N+](=O)[O-])Cc2ccccc2)n1Cc1ccc(-c2ccccc2-c2nnn[nH]2)cc1"
relation_sign = ">"
measurement = 5

[[record]]
molecule = "CCCCc1nc(Cl)c(C(=O)N2CCC[C@H]2C(=O)OCCCCO[N+](=O)[O-])n1Cc1ccc(-c2ccccc2-c2nn[nH]n2)cc1"
relation_sign = ">"
measurement = 5

